# TARGET_OR_TEST_SYSTEM: FXI
# ASSAY_COMMENT: Kd (SPR)
pKd: −log10 of the molar value.
Recorded pKd values for a group of binders are listed next.
OUTCOME_MEASURE: pKd

BINDER: unnamed (protein) chain 1: EVQLLESGGGLVQPGGSLRLSCAASGFTFSQYGMDWVRQAPGKGLEWVSGIGPSGGSTVYADSVKGRFTISRDNSKNTLYLQMNSLRAEDTAVYYCTRDGPWYYYGFDVWGQGTTVTVSS chain 2: DIQMTQSPSSLSASVGDRVTITCQASQDISNYLNWYQQKPGKAPKLLIYDASNLETGVPSRFSGSGSGTDFTFTISSLQPEDIATYYCQQADSFPVTFGGGTKVEIK
RECORDED_NUMBER: 7.34
--
BINDER: unnamed (protein) chain 1: EVQLLESGGGLVQPGGSLRLSCAASGFTFSQYGMDWVRQAPGKGLEWVSGIGPSGGSTVYADSVKGRFTISRDNSKNTLYLQMNSLRAEDTAVYYCTRDGDAYYYAFDVWGQGTTVTVSS chain 2: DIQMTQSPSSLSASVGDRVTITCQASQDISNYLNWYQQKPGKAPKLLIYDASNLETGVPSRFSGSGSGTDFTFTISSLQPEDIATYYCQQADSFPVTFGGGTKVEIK
RECORDED_NUMBER: 6.20
--
BINDER: unnamed (protein) chain 1: EVQLLESGGGLVQPGGSLRLSCAASGFTFSQYGMDWVRQAPGKGLEWVSGIGPSGGSTVYADSVKGRFTISRDNSKNTLYLQMNSLRAEDTAVYYCARDGPSYYYAFDVWGQGTTVTVSS chain 2: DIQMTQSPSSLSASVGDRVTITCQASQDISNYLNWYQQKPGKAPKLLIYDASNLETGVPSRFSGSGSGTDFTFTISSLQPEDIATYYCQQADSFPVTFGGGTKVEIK
RECORDED_NUMBER: 6.87
--
BINDER: unnamed (protein) chain 1: EVQLLESGGGLVQPGGSLRLSCAASGFTFSSYAMDWVRQAPGKGLEWVSGISGDGGSTVYADSVKGRFTISRDNSKNTLYLQMNSLRAEDTAVYYCTRGGPAYYYGFDVWGQGTTVTVSS chain 2: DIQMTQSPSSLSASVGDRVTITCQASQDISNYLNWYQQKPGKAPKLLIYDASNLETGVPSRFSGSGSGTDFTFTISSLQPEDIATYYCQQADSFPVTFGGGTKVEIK
RECORDED_NUMBER: 6.26
--
BINDER: unnamed (protein) chain 1: EVQLLESGGGLVQPGGSLRLSCAASGFTFSSYGMDWVRQAPGKGLEWVSGISSDGGSTVYADSVKGRFTISRDNSKNTLYLQMNSLRAEDTAVYYCTRGGPAYYYAFDVWGQGTTVTVSS chain 2: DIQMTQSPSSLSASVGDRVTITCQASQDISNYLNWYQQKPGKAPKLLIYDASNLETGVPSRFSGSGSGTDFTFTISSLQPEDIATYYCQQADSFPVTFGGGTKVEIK
RECORDED_NUMBER: 6.53
--
BINDER: unnamed (protein) chain 1: EVQLLESGGGLVQPGGSLRLSCAASGFTFSSYAMDWVRQAPGKGLEWVSGISADGGSTVYADSVKGRFTISRDNSKNTLYLQMNSLRAEDTAVYYCTRGGPAYYYAFDYWGQGTTVTVSS chain 2: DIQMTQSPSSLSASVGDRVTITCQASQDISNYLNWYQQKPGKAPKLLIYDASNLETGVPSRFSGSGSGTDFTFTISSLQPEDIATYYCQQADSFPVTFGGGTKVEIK
RECORDED_NUMBER: 6.15
--
BINDER: unnamed (protein) chain 1: EVQLLESGGGLVQPGGSLRLSCAASGFTFSQYGMDWVRQAPGKGLEWVSGIGPSGGSTVYADSVKGRFTISRDNSKNTLYLQMNSLRAEDTAVYYCARDGSAYYYAFDVWGQGTTVTVSS chain 2: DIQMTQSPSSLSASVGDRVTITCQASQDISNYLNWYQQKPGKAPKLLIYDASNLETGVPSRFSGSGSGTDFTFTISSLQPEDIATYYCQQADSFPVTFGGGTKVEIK
RECORDED_NUMBER: 6.57
--
BINDER: unnamed (protein) chain 1: EVQLLESGGGLVQPGGSLRLSCAASGFTFSQYGMDWVRQAPGKGLEWVSGIGPSGGSTVYADSVKGRFTISRDNSKNTLYLQMNSLRAEDTAVYYCARDGPAYYYAFDVWGQGTTVTVSS chain 2: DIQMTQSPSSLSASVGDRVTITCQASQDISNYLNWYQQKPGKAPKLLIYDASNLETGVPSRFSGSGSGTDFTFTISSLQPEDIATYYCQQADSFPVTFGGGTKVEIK
RECORDED_NUMBER: 7.08
--
BINDER: unnamed (protein) chain 1: EVQLLESGGGLVQPGGSLRLSCAASGFTFSQYGMDWVRQAPGKGLEWVSGIGPSGGSTVYADSVKGRFTISRDNSKNTLYLQMNSLRAEDTAVYYCARRGRYGLYAMDYWGQGTTVTVSS chain 2: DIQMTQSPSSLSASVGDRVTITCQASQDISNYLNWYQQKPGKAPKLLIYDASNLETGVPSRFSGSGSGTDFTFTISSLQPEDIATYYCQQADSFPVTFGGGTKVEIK
RECORDED_NUMBER: 5.69
--
BINDER: unnamed (protein) chain 1: EVQLLESGGGLVQPGGSLRLSCAASGFTFSQYGMDWVRQAPGKGLEWVSGIGPSGGSTVYADSVKGRFTISRDNSKNTLYLQMNSLRAEDTAVYYCTRGGPYYYYGMDVWGQGTTVTVSS chain 2: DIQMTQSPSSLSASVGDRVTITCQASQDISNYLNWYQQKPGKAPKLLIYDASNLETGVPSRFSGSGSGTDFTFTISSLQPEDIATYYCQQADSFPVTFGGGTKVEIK
RECORDED_NUMBER: 6.99

The origin of these recorded values is the FLAb antibody collection (doi:10.1101/2023.12.08.570889).
